Target: Recombinant BTK(C481S) (Homo sapiens, UniProt Q06187, C481S)
Sequence (Q06187 whole entry C481S): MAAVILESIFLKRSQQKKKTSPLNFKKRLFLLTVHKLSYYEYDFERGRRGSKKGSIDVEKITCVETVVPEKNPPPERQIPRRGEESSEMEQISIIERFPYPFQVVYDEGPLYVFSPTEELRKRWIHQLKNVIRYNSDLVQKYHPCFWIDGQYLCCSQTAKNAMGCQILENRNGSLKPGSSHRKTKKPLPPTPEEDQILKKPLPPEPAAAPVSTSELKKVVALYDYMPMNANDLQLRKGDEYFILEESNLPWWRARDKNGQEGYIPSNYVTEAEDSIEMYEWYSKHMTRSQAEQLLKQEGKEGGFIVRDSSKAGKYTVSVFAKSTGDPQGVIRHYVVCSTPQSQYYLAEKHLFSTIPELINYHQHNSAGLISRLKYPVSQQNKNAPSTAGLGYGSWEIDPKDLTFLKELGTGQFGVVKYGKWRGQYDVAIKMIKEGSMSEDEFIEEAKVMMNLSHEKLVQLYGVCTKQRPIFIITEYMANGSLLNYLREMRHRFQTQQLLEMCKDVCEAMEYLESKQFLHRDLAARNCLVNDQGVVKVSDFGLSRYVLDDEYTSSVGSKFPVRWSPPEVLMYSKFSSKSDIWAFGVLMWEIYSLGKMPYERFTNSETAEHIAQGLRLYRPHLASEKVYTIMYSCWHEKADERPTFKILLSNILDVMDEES
Test: BTK C481S HTRF kinase assay
Details: 30 min pre-incubation, 120 min reaction
The following molecules are shown together with reported IC50 values.
property-measured: IC50 (nM)

[
  {
    "molecule": "Nc1nccn2c(C3CCC(CO)OC3)nc(-c3ccc(Oc4ccccc4)cc3F)c12 (single isomer, unassigned) [Compound 2]",
    "unit-text": "nM",
    "measured-result": 0.66
  },
  {
    "molecule": "Nc1nccn2c(C3CCC(CO)OC3)nc(-c3ccc(Oc4ccccc4)cc3)c12 (stereo not drawn) [Compound 1]",
    "unit-text": "nM",
    "measured-result": 1.06
  },
  {
    "molecule": "Nc1ncnn2c(C3CCC(CO)OC3)nc(-c3ccc(Oc4cccc(F)c4F)cc3)c12 (stereo not drawn) [Compound 14]",
    "unit-text": "nM",
    "measured-result": 0.86
  }
]
